Target: recombinant human PAI-1 (Homo sapiens, UniProt P05121)
Construct: purchased Molecular Innovations, Inc
Sequence (P05121 24-402): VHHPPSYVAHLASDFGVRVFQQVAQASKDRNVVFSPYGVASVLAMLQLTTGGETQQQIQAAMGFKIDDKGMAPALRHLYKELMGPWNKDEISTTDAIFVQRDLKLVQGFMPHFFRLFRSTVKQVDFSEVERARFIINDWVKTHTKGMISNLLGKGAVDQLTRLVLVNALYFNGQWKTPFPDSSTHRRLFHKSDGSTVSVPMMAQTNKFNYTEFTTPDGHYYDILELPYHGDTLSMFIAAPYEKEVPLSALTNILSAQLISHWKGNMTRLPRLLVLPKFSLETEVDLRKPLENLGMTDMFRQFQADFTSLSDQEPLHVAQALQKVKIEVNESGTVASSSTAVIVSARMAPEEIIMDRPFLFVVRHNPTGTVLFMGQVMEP
Experiment: Test Example 2: human PAI-1 inhibitory activity (tPA fluorogenic substrate, pH 7.4 HEPES buffer)
Format: biochemical
Conditions: human PAI-1; compound concentration 25 μM
Procedure: 0.1 M HEPES, 0.1 M NaCl. 1 mM EDTA. 0.1% Polyethylene glycol 8,000 (Hampton Research Corporation), 2 mM Dimethyldecylphoshine oxide [Apo-10] (Fluka Corporation)
Consider the following molecules and their measured Inhibition Rate of PAI-1 Activity (%) readings.
quantity: Inhibition Rate of PAI-1 Activity (%)

| compound | target_or_test_system | inequality_sign | observed_result |
| --- | --- | --- | --- |
| O=C(O)CC(=O)N(Cc1ccccc1)c1ccc(-c2ccc(OC(F)(F)F)cc2)cc1F | recombinant human PAI-1 (Homo sapiens, UniProt P05121) | > | 99 |
| CC(C)(C)c1ccc(CN(C(=O)CCCC(=O)O)c2ccc(-c3ccc(OC(F)(F)F)cc3)cc2)cc1 | recombinant human PAI-1 (Homo sapiens, UniProt P05121) | = | 46 |
| O=C(O)c1cc(-c2ccc(OC(F)(F)F)cc2)ccc1OCc1ccccc1 | recombinant human PAI-1 (Homo sapiens, UniProt P05121) | = | 53 |
| O=C(O)C(=O)N(Cc1ccc(-c2ccc(OC(F)(F)F)cc2)cc1)c1ccccc1 | recombinant human PAI-1 (Homo sapiens, UniProt P05121) | = | 81 |
| CN(C(=O)c1ccc(OC(F)(F)F)cc1)c1ccc(OCc2ccc(C(C)(C)C)cc2)c(CCC(=O)O)c1 | recombinant human PAI-1 (Homo sapiens, UniProt P05121) | > | 99 |
| CN(C(=O)c1ccc(N(Cc2ccc(C(C)(C)C)cc2)C(=O)C(=O)O)cc1)c1ccc(OC(F)(F)F)cc1 | recombinant human PAI-1 (Homo sapiens, UniProt P05121) | > | 99 |
| CC(C)(C)c1ccc(N(CC(=O)O)c2ccccc2Oc2ccc(OC(F)(F)F)cc2)cc1 | recombinant human PAI-1 (Homo sapiens, UniProt P05121) | = | 86 |
| CCCCOc1ccc(-c2ccc(OC(F)(F)F)cc2)cc1/C=C/C(=O)O | recombinant human PAI-1 (Homo sapiens, UniProt P05121) | = | 95 |
| CC(C)(C)c1ccc(COc2ccc(N3CCN(c4ccc(OC(F)(F)F)cc4)CC3)cc2/C=C/C(=O)O)cc1 | recombinant human PAI-1 (Homo sapiens, UniProt P05121) | = | 90 |
| CC(C)(C)c1ccc(-c2ccc(CN(C(=O)C(=O)O)c3ccc(OC(F)(F)F)cc3)cc2)cc1 | recombinant human PAI-1 (Homo sapiens, UniProt P05121) | = | 95 |
| CC(C)(C)c1ccc(CN(C(=O)C(=O)O)c2ccc(N3CCN(c4ccccc4)CC3)cc2)cc1 | recombinant human PAI-1 (Homo sapiens, UniProt P05121) | > | 99 |

* * *

target: recombinant human PAI-1 (Homo sapiens, UniProt P05121); construct: purchased Molecular Innovations, Inc; assay: Test Example 2: human PAI-1 inhibitory activity (tPA fluorogenic substrate, pH 7.4 HEPES buffer); assay type: biochemical

| compound | target_or_test_system | unit_label | inequality_sign | IC50 |
| --- | --- | --- | --- | --- |
| CCCCCCCCCOc1cc(-c2ccc(OC(F)(F)F)cc2)ccc1N(CCCCc1ccccc1)C(=O)C(=O)O | recombinant human PAI-1 (Homo sapiens, UniProt P05121) | nM | < | 100 |
| CCCCCOc1ccc(-c2ccccc2)cc1N(CCCCc1ccccc1)C(=O)C(=O)O | recombinant human PAI-1 (Homo sapiens, UniProt P05121) | nM | = | 1590 |
| CCCCCOc1ccc(-c2ccc(C(F)(F)F)cc2)cc1N(CCCCc1ccccc1)C(=O)C(=O)O | recombinant human PAI-1 (Homo sapiens, UniProt P05121) | nM | = | 650 |
| CCCCCOc1ccc(-c2ccc(Cl)cc2)cc1N(CCCCc1ccccc1)C(=O)C(=O)O | recombinant human PAI-1 (Homo sapiens, UniProt P05121) | nM | = | 830 |
| CCCCCCCCCOc1cc(N(CCCCc2ccccc2)C(=O)C(=O)O)ccc1-c1ccc(OC(F)(F)F)cc1 | recombinant human PAI-1 (Homo sapiens, UniProt P05121) | nM | < | 100 |
| CCCCCCCCCCOc1ccc(-c2ccc(OC(F)(F)F)cc2)cc1N(CCCCc1ccccc1)C(=O)C(=O)O | recombinant human PAI-1 (Homo sapiens, UniProt P05121) | nM | = | 110 |
| CCCCCCCCCOc1ccc(-c2ccc(OC(F)(F)F)cc2)cc1N(CCCCc1ccccc1)C(=O)C(=O)O | recombinant human PAI-1 (Homo sapiens, UniProt P05121) | nM | = | 110 |
| CCCCCCCCCCCCCCCOc1cc(-c2ccc(OC(F)(F)F)cc2)ccc1N(CCCCc1ccccc1)C(=O)C(=O)O | recombinant human PAI-1 (Homo sapiens, UniProt P05121) | nM | < | 100 |
| CCCCCOc1cc(-c2cccc(C(F)(F)F)c2)ccc1N(CCCCc1ccccc1)C(=O)C(=O)O | recombinant human PAI-1 (Homo sapiens, UniProt P05121) | nM | = | 480 |
| CCCCCOc1ccc(-c2ccc(F)cc2)cc1N(CCCCc1ccccc1)C(=O)C(=O)O | recombinant human PAI-1 (Homo sapiens, UniProt P05121) | nM | = | 1640 |
| O=C(O)C(=O)N(CCCCc1ccccc1)c1cc(-c2ccc(OC(F)(F)F)cc2)ccc1N1CCCCC1 | recombinant human PAI-1 (Homo sapiens, UniProt P05121) | nM | = | 940 |
| CCCCCOc1cc(-c2ccc(OC(F)(F)F)cc2)cc(N(CCCCc2ccccc2)C(=O)C(=O)O)c1OCCCCC | recombinant human PAI-1 (Homo sapiens, UniProt P05121) | nM | = | 460 |
| CCCCCOc1cc(Oc2ccc(OC(F)(F)F)cc2)ccc1N(CCCCc1ccccc1)C(=O)C(=O)O | recombinant human PAI-1 (Homo sapiens, UniProt P05121) | nM | = | 840 |
| CCCCCOc1ccc(-c2cccc(OC(F)(F)F)c2)cc1N(CCCCc1ccccc1)C(=O)C(=O)O | recombinant human PAI-1 (Homo sapiens, UniProt P05121) | nM | = | 780 |
| CCCCCOc1cc(-c2ccc(OC(F)(F)F)cc2)ccc1N(CCCCc1ccccc1)C(=O)C(=O)O | recombinant human PAI-1 (Homo sapiens, UniProt P05121) | nM | = | 900 |
